Target: T1, cadherin6 (CDH6)-fc fusion protein (UniProt P55285 54-615, limits assumed)
T1 construct: Immobilised on a carboxymethyl dextran SPR chip; also called K-cadherin
T1 sequence (looked up): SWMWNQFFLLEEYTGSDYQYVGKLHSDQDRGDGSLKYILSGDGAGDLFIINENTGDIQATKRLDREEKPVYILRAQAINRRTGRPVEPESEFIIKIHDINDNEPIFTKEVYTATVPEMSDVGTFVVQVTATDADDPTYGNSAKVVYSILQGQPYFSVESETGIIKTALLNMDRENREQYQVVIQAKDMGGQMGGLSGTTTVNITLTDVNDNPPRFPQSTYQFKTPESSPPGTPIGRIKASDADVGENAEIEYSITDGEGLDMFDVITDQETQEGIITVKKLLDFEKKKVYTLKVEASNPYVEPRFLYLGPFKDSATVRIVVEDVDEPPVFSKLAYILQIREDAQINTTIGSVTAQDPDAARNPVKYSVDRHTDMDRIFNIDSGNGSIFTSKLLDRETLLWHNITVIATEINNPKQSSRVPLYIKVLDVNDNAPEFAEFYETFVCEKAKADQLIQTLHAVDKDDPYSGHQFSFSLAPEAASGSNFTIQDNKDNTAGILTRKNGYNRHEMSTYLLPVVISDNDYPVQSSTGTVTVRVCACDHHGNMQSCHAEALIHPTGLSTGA
Assay: SPR, CDH6-Fc immobilised on carboxymethyl dextran chip, peptide injected
Protocol: Comparison was made of the affinity of the peptides of the present invention for CDH6. The binding of GRS and GRS-derived peptides to cadherin6 (CDH6)-fc fusion protein was analyzed by surface plasmon resonance (SPR) using SR7500DC, Reichert Analytical Instrument (Depew NY). […] Data was analyzed using Software Scrubber 2.0 (Biological Software, Australia).
pKd: −log10 of the molar value.
parameter-measured: pKd

Incoming: Item CYTVFEHTFHVREGDEQRTFFSFPC (cyclic form: "monosulfide linkage" formed between the cysteine residues at the opposite termini (Cys 1 and Cys 25), Cyclised by spontaneous reaction at pH 8; 3.083 kDa; also called GRS-DP-A cyclic variant) [GRS-DP-A cyclic] has what recorded pKd?
Outgoing: 7.29

Incoming: Given the entry MYTVFEHTFHVREGDEQRTFFSFPA (Linear 25-mer, 3.079 kDa) [GRS-DP-A linear (GRS 531-555 aa)] , report its measured pKd.
Outgoing: 7.21

Incoming: Reported pKd for GRS-DP polypeptide (GRS 531-600 aa) (Linear truncated GRS fragment; also called GRS-DP peptide) peptide: MYTVFEHTFHVREGDEQRTFFSFPAVVAPFKCSVLPLSQNQEFMPFVKELSEALTRHGVSHKVDDSSGSI : what is it?
Outgoing: 7.08
